target: T1, PSMA Fab (006 PSMA Fab); experiment: phage ELISA; biotinylated PSMA Fab on neutravidin plate pre-incubated with PSMA antigen as competitor, clonal phage supernatant, anti-M13 HRP
T1 construct: also called Anti-PSMA Fab; anti-PSMA Fab
Measured Phage binding ELISA signal, Anti-PSMA Fab with PSMA antigen determines class: bottom end = under 0.09, midrange = from 0.09 up to 0.1, top end = 0.1 and over

BINDER: GLALCKPAWMCQGF [Phage-3247]
LABEL: bottom end
//
BINDER: QDIVCRPSWMCHGF [Phage-3246]
LABEL: bottom end
//
BINDER: MVERCIPVWMCEGF [Phage-3241]
LABEL: midrange
//
BINDER: LSAMCVPPWMCTGF [Phage-3244]
LABEL: top end
